Please respond with reported Complete Response for every item in the list.
Test system: MX-1 human breast carcinoma
Type: in vivo
Conditions: number of mice; single oral bolus Day 1; mg/kg: 0499 80, 0550 73, 0611 113, 0748 200; 6 mice/group; Day 63
Give bare numbers.

Here are 2 molecules together with their reported answers.
molecule	assay-system	Complete Response
CCC(=O)O[C@H]1C(=O)[C@@]2(C)[C@H]([C@H](OC(=O)c3ccccc3)[C@]3(O)C[C@H](OC(=O)[C@H](O)[C@H](C=C(C)C)NC(=O)OC(C)(C)C)C(C)=C1C3(C)C)[C@]1(OC(C)=O)CO[C@@H]1C[C@@H]2O	MX-1 human breast carcinoma	2
CCC(=O)O[C@H]1C(=O)[C@@]2(C)[C@H]([C@H](OC(=O)c3ccccc3)[C@]3(O)C[C@H](OC(=O)[C@H](O)[C@@H](NC(=O)OC(C)(C)C)c4ccccc4)C(C)=C1C3(C)C)[C@]1(OC(C)=O)CO[C@@H]1C[C@@H]2O	MX-1 human breast carcinoma	4

Record Complete Response per entry; entries follow.
1. CCC(=O)O[C@H]1C(=O)[C@@]2(C)[C@H]([C@H](OC(=O)c3ccccc3)[C@]3(O)C[C@H](OC(=O)[C@H](O)[C@@H](NC(=O)c4ccccc4)c4ccccc4)C(C)=C1C3(C)C)[C@]1(OC(C)=O)CO[C@@H]1C[C@@H]2O
2. CCC(=O)O[C@H]1C(=O)[C@@]2(C)[C@H]([C@H](OC(=O)c3ccccc3)[C@]3(O)C[C@H](OC(=O)[C@H](O)[C@@H](NC(=O)OC(C)(C)C)c4cccs4)C(C)=C1C3(C)C)[C@]1(OC(C)=O)CO[C@@H]1C[C@@H]2O

Result string:
1: 0; 2: 6

* * *

Tested on: VM46 colon carcinoma
Settings: number of mice; i.v. qd x 1; mg/kg: Taxol 24, 0499 77, 0503 72.6, 0670 123.1, 0706 107.6, 0838 72.6, 0854 46.6, 0983 67.4, Taxotere 70; 6 mice/group; Day 64
quantity: Stable Disease
Give bare numbers.

molecule	quantity	measured-number
CC(=O)O[C@H]1C(=O)[C@@]2(C)[C@H]([C@H](OC(=O)c3ccccc3)[C@]3(O)C[C@H](OC(=O)[C@H](O)[C@@H](NC(=O)c4ccccc4)c4ccccc4)C(C)=C1C3(C)C)[C@]1(OC(C)=O)CO[C@@H]1C[C@@H]2O [Taxol, paclitaxel, reference compound]	Stable Disease	1
CCC(=O)O[C@H]1C(=O)[C@@]2(C)[C@H]([C@H](OC(=O)c3ccccc3)[C@]3(O)C[C@H](OC(=O)[C@H](O)[C@@H](NC(=O)c4ccccc4)c4ccoc4)C(C)=C1C3(C)C)[C@]1(OC(C)=O)CO[C@@H]1C[C@@H]2O [Compound 0670]	Stable Disease	0
CCC(=O)O[C@H]1C(=O)[C@@]2(C)[C@H]([C@H](OC(=O)c3ccccc3)[C@]3(O)C[C@H](OC(=O)[C@H](O)[C@@H](NC(=O)c4ccccc4)C4CC4)C(C)=C1C3(C)C)[C@]1(OC(C)=O)CO[C@@H]1C[C@@H]2O [Compound 0706]	Stable Disease	0
CCC(=O)O[C@H]1C(=O)[C@@]2(C)[C@H]([C@H](OC(=O)c3ccccc3)[C@]3(O)C[C@H](OC(=O)[C@H](O)[C@H](C=C(C)C)NC(=O)OC(C)(C)C)C(C)=C1C3(C)C)[C@]1(OC(C)=O)CO[C@@H]1C[C@@H]2O [Compound 0499]	Stable Disease	1

Switching to the query record.
Query string: Lab note: need Stable Disease with VM46 colon carcinoma for entry CCC(=O)O[C@H]1C(=O)[C@@]2(C)[C@H]([C@H](OC(=O)c3ccccc3)[C@]3(O)C[C@H](OC(=O)[C@H](O)[C@@H](NC(=O)OC(C)(C)C)c4ccccn4)C(C)=C1C3(C)C)[C@]1(OC(C)=O)CO[C@@H]1C[C@@H]2O [Compound 0503] , please look it up.
Result string: 1

* * *

Tested on: blood cell populations
Assay: Effect of oral treatment on blood cell populations and body weight in the MX-1 study (Example 22)
Assay type: in vivo, nu/nu mice
Conditions: Day 4; single oral bolus Day 1; mg/kg: 0499 80, 0550 73, 0611 113, 0748 200
Assignment: determine reported Monocytes (K/µL) for the given molecules.
Give bare numbers, in K/µL.

Solved entries (count: 3):
molecule	Monocytes (K/µL)
CCC(=O)O[C@H]1C(=O)[C@@]2(C)[C@H]([C@H](OC(=O)c3ccccc3)[C@]3(O)C[C@H](OC(=O)[C@H](O)[C@H](C=C(C)C)NC(=O)OC(C)(C)C)C(C)=C1C3(C)C)[C@]1(OC(C)=O)CO[C@@H]1C[C@@H]2O [Compound 0499]	0.073
CCC(=O)O[C@H]1C(=O)[C@@]2(C)[C@H]([C@H](OC(=O)c3ccccc3)[C@]3(O)C[C@H](OC(=O)[C@H](O)[C@@H](NC(=O)OC(C)(C)C)c4cccs4)C(C)=C1C3(C)C)[C@]1(OC(C)=O)CO[C@@H]1C[C@@H]2O [Compound 0550]	0.019
CCC(=O)O[C@H]1C(=O)[C@@]2(C)[C@H]([C@H](OC(=O)c3ccccc3)[C@]3(O)C[C@H](OC(=O)[C@H](O)[C@@H](NC(=O)OC(C)(C)C)c4ccccc4)C(C)=C1C3(C)C)[C@]1(OC(C)=O)CO[C@@H]1C[C@@H]2O [Compound 0611]	0.042

Could you now look at the following molecule, please?
Query string: Which value of Monocytes (K/µL) has been reported for CCC(=O)O[C@H]1C(=O)[C@@]2(C)[C@H]([C@H](OC(=O)c3ccccc3)[C@]3(O)C[C@H](OC(=O)[C@H](O)[C@@H](NC(=O)c4ccccc4)c4ccccc4)C(C)=C1C3(C)C)[C@]1(OC(C)=O)CO[C@@H]1C[C@@H]2O [Compound 0748] in the records?
Result string: 0.117

* * *

Would you mind telling me the reported % Reduction (Neutrophils) of each entry?
Test system: blood cell populations
Assay: Effect of oral treatment on blood cell populations and body weight in the MX-1 study (Example 22)
Format: in vivo, nu/nu mice
Settings: Day 4, vs vehicle; single oral bolus; mg/kg: 0499 80, 0550 73, 0611 113, 0748 200
Numbers only, in %.

molecule	% Reduction (Neutrophils) (%)
CCC(=O)O[C@H]1C(=O)[C@@]2(C)[C@H]([C@H](OC(=O)c3ccccc3)[C@]3(O)C[C@H](OC(=O)[C@H](O)[C@@H](NC(=O)OC(C)(C)C)c4cccs4)C(C)=C1C3(C)C)[C@]1(OC(C)=O)CO[C@@H]1C[C@@H]2O	95.9
CCC(=O)O[C@H]1C(=O)[C@@]2(C)[C@H]([C@H](OC(=O)c3ccccc3)[C@]3(O)C[C@H](OC(=O)[C@H](O)[C@H](C=C(C)C)NC(=O)OC(C)(C)C)C(C)=C1C3(C)C)[C@]1(OC(C)=O)CO[C@@H]1C[C@@H]2O	91.6
CCC(=O)O[C@H]1C(=O)[C@@]2(C)[C@H]([C@H](OC(=O)c3ccccc3)[C@]3(O)C[C@H](OC(=O)[C@H](O)[C@@H](NC(=O)c4ccccc4)c4ccccc4)C(C)=C1C3(C)C)[C@]1(OC(C)=O)CO[C@@H]1C[C@@H]2O	70.5

Now examine the next entry.
Query string: Param readout= % Reduction (Neutrophils); system= blood cell populations; entry= CCC(=O)O[C@H]1C(=O)[C@@]2(C)[C@H]([C@H](OC(=O)c3ccccc3)[C@]3(O)C[C@H](OC(=O)[C@H](O)[C@@H](NC(=O)OC(C)(C)C)c4ccccc4)C(C)=C1C3(C)C)[C@]1(OC(C)=O)CO[C@@H]1C[C@@H]2O ; returns value.
Result string: 93.7

* * *

Assignment: determine reported MDS (n) for the given molecules.
System: A375 melanoma
Conditions: mean days of survival until neoplasm reached 2.0 g; i.v. qd x 1 at estimated MTD (Taxol 24 mg/kg, Taxotere 70 mg/kg); 6 mice/group (Taxotere 7); terminated Day 60

These recorded examples may help you get a feel for the data.
molecule	MDS (n)
CC(=O)O[C@@]12CO[C@@H]1C[C@H](O)[C@@]1(C)C(=O)[C@H](O)C3=C(C)[C@@H](OC(=O)[C@H](O)[C@@H](NC(=O)OC(C)(C)C)c4ccccc4)C[C@@](O)([C@@H](OC(=O)c4ccccc4)[C@H]21)C3(C)C [Taxotere, docetaxel, reference compound]	21.5 ± 0.5 (7) days
CCC(=O)O[C@H]1C(=O)[C@@]2(C)[C@H]([C@H](OC(=O)c3ccccc3)[C@]3(O)C[C@H](OC(=O)[C@H](O)[C@H](C=C(C)C)NC(=O)OC(C)(C)C)C(C)=C1C3(C)C)[C@]1(OC(C)=O)CO[C@@H]1C[C@@H]2O	30.5 ± 3.5 (3) days
CCC(=O)O[C@H]1C(=O)[C@@]2(C)[C@H]([C@H](OC(=O)c3ccccc3)[C@]3(O)C[C@H](OC(=O)[C@H](O)[C@@H](NC(=O)OC(C)(C)C)c4ccccn4)C(C)=C1C3(C)C)[C@]1(OC(C)=O)CO[C@@H]1C[C@@H]2O	28.1 ± 5.8 (3) days
CC(=O)O[C@H]1C(=O)[C@@]2(C)[C@H]([C@H](OC(=O)c3ccccc3)[C@]3(O)C[C@H](OC(=O)[C@H](O)[C@@H](NC(=O)c4ccccc4)c4ccccc4)C(C)=C1C3(C)C)[C@]1(OC(C)=O)CO[C@@H]1C[C@@H]2O [Taxol, paclitaxel, reference compound]	18.1 ± 0.6 (4) days

Query string: Form entry - test system: A375 melanoma; read-out: MDS (n); molecule: CC(=O)O[C@@]12CO[C@@H]1C[C@H](O)[C@@]1(C)C(=O)[C@H](OC(=O)C3CC3)C3=C(C)[C@@H](OC(=O)[C@H](O)[C@H](C=C(C)C)NC(=O)OC(C)(C)C)C[C@@](O)([C@@H](OC(=O)c4ccccc4)[C@H]21)C3(C)C
Result string: 33.5 ± 3.4 (5) days
